# tested.on: Cholinesterase (Homo sapiens)
# Sequence (P06276 whole entry): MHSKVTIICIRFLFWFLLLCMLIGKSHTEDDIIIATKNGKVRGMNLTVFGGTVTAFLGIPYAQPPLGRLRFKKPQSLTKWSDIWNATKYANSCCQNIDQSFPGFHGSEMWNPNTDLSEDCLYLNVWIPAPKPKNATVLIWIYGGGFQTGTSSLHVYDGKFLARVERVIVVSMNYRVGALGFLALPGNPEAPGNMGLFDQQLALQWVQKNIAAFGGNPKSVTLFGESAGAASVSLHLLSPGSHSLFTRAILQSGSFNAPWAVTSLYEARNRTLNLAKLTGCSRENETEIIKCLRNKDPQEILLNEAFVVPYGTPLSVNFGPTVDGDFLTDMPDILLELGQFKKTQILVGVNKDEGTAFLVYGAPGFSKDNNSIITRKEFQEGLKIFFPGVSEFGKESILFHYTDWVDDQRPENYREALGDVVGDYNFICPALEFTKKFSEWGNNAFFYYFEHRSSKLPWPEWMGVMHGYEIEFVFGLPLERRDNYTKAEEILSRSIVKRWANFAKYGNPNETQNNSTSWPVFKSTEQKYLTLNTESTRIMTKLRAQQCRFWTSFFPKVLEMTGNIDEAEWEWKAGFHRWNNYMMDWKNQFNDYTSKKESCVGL
# procedure.details: Inhibition of human serum BChE by Ellman's method
parameter: pIC50
Answers are plain numbers, as −log10 of the molar value.

These solved cases illustrate the format of a correct answer.
COc1ccc(C(=O)c2ccc(CN(C)Cc3ccccc3)cc2)cc1OC
4.22
COc1ccc(C(=O)c2ccc(CN(C)Cc3cccc(C)c3)cc2)cc1OC
3.90
COc1ccc(C(=O)c2ccc(CN(C)CCN(C)C)cc2)cc1OC
4.05
COc1ccc(C(=O)c2ccc(CN(CCN(C)C)Cc3ccccc3)cc2)cc1OC
4.48
COc1ccccc1CN(C)Cc1ccc(C(=O)c2ccc(OC)c(OC)c2)cc1
4.79
COc1ccc(C(=O)c2ccc(CN(CCO)Cc3ccccc3)cc2)cc1OC
3.76
COc1ccc(C(=O)c2ccc(/C=C/CN(C)Cc3ccccc3)cc2)cc1OC
4.36

Proceed to the following item.
API: value(readout= pIC50, system= Cholinesterase (Homo sapiens), query= CCN(Cc1ccccc1)Cc1ccc(C(=O)c2ccc(OC)c(OC)c2)cc1 )
4.15

====

# tested.on: UniProtKB P22303
# Sequence (P22303 whole entry): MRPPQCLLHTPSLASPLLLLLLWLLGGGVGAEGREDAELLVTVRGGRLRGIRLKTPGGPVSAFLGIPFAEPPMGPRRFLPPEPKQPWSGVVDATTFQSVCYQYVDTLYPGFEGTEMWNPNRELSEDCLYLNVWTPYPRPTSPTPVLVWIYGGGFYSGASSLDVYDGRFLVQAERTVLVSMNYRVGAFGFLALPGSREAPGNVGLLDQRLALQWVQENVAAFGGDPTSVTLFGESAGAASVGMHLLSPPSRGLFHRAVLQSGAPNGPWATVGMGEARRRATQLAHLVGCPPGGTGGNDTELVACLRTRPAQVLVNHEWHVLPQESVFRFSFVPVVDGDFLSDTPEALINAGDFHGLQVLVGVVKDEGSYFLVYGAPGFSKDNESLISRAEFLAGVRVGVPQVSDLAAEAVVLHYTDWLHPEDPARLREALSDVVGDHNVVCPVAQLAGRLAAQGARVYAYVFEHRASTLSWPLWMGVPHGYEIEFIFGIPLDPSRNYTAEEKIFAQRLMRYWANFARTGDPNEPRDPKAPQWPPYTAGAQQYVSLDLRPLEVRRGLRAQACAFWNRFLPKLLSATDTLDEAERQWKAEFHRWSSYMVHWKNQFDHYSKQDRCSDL
# procedure.details: Inhibition of human recombinant AChE by Ellman's method
pIC50: −log10 of the molar value.
# cutoff 5 applies to pIC50; >= gives fulfilled, < gives not fulfilled

Some solved entries appear below for comparison.
CN(Cc1ccccc1)Cc1ccc(C(=O)c2ccc3ccccc3c2)cc1
not fulfilled
COc1ccc(C(=O)c2ccc(CN3CCc4ccccc4C3)cc2)cc1OC
not fulfilled
COc1ccc(C(=O)c2ccc(CN(C)Cc3ccccc3)cc2)cc1
fulfilled

Please check the record COc1ccc(C(=O)c2ccc(/C=C/CN(C)Cc3ccccc3)cc2)cc1OC and state if its pIC50 is at or above 5.
fulfilled

Please check the record COc1ccccc1CN(C)Cc1ccc(C(=O)c2ccc(OC)c(OC)c2)cc1 and state if its pIC50 is at or above 5.
fulfilled

Please check the record COc1ccc(C(=O)c2ccc(CN(C)CCN(C)C)cc2)cc1OC and state if its pIC50 is at or above 5.
fulfilled

Please check the record COc1ccc(C(=O)c2ccc(CN(C)Cc3ccccc3)cc2)cc1OC and state if its pIC50 is at or above 5.
fulfilled

Please check the record C#CCN(C)Cc1ccc(C(=O)c2ccc(OC)c(OC)c2)cc1 and state if its pIC50 is at or above 5.
not fulfilled

Please check the record COc1ccc(C(=O)c2ccc(CN3CCOCC3)cc2)cc1OC and state if its pIC50 is at or above 5.
not fulfilled

Please check the record COc1ccc(C(=O)c2ccc(CN(C)Cc3cccc([N+](=O)[O-])c3)cc2)cc1OC and state if its pIC50 is at or above 5.
fulfilled

Please check the record CCN(CC)Cc1ccc(C(=O)c2ccc(OC)c(OC)c2)cc1 and state if its pIC50 is at or above 5.
not fulfilled

Please check the record COc1ccc(C(=O)c2ccc(CN(C)Cc3ccccc3)cc2)cc1F and state if its pIC50 is at or above 5.
fulfilled

Please check the record COc1ccc(C(=O)c2ccc(CN(C)Cc3cccc(C)c3)cc2)cc1OC and state if its pIC50 is at or above 5.
fulfilled

Please check the record COc1ccc(C(=O)c2ccc(CN(CCO)Cc3ccccc3)cc2)cc1OC and state if its pIC50 is at or above 5.
fulfilled

Please check the record CCN(Cc1ccccc1)Cc1ccc(C(=O)c2ccc(OC)c(OC)c2)cc1 and state if its pIC50 is at or above 5.
fulfilled
